Data credit: ChEMBL document CHEMBL3286203

# Tested on: CAKI-1
# ASSAY_METHOD_TEXT: Cytotoxicity against human Caki1 cells assessed as growth inhibition at 10 uM after 48 hrs by SRB assay
# Format: functional, cell-based
The source made the active and inactive calls. No cut-off for these calls is given here.
Classes used: active, inactive

| STRUCTURE_NOTATION | CLASSIFICATION |
| --- | --- |
| CC1(C)OB(c2ccc(N(CCCl)CCBr)cc2)OC1(C)C | active |
| CC1(C)OB(c2ccc(N(CCBr)CCBr)cc2)OC1(C)C | active |
| CC1(C)OB(c2ccc(N(CCCl)CCCl)cc2)OC1(C)C | active |
| CC1(C)OB(c2ccc(COC(=O)N(CCCl)CCCl)cc2)OC1(C)C | inactive |
| CC1(C)OB(c2ccc(N(CCCl)CCOS(C)(=O)=O)cc2)OC1(C)C | active |
| CC1(C)OB(c2ccc(N(CCBr)CCOS(C)(=O)=O)cc2)OC1(C)C | active |
